Tested on: NCI-H23
Details: human, 48 h
Quick reference: CC50 of the listed items.
The response must be a number in µM with no trailing unit.

O=C(O)CCCCCN1C(=O)/C(=C/C=C/c2ccc([N+](=O)[O-])o2)SC1=S [14b]
5.89

Here is the next item to consider.
**Q:** Please report the recorded CC50 for O=C(O)CCCN1C(=O)/C(=C/C=C/c2ccc([N+](=O)[O-])o2)SC1=S [13b] .
**A:** 5.7

---

Tested on: OVCAR-8
Settings: human, 48 h
QUANTITY KIND: CC50 (µM)
The response must be a number in µM with no trailing unit.

**Q:** Please report the recorded CC50 for O=C(O)CCCCCN1C(=O)/C(=C/C=C/c2ccc([N+](=O)[O-])o2)SC1=S [14b] .
**A:** 9.71
